Test system: EA reactive antibody (IgG) in infectious mononucleosis (IM) sera
Experiment: ELISA, EA peptides with EBV infectious mononucleosis sera
Type: binding, human
Conditions: EA positive EBV IM acute serum, sample no. 2241
What ELISA result, peptides with and without extensions was measured for each of the following?
The response must contain the number and no unit.

For this sequence ( QNSETFTETWNRFITHTEHVD [17.1e, extension of p17.1 by the addition of several amino and carboxy-terminal amino acids] ), measured ELISA result, peptides with and without extensions is 1.277

For this sequence ( KQKHPKKVKQAFNPL [p50.10, synthetic peptide from 50 Kd early antigen (EA-D) region of EBV] ), measured ELISA result, peptides with and without extensions is 0.673

For this sequence ( ETFTETWNRFITHTE [p17.1, synthetic peptide from 17 Kd early antigen (EA-R) region of EBV] ), measured ELISA result, peptides with and without extensions is 0.282
